- Test system: DeltatarO mutant
- test-details: S. aureus survival, RN4220 and DeltatarO strains – OD600, teichoic acid synthesis inhibitors, primary screen (AID 463173)
- reported-conditions: S. aureus RN4220 wild type/DeltatarO growth, OD600, 18 h, screened at 18.75 µg/mL (by protocol)
The whole screen tested about 52,000 compounds, of which about 4,300 (8.3%) were called active. No stated cut-off is given here; in the data, active means survival mostly below about 52% (no sharp cut-off); inactive means mostly above about 56%. This excerpt belongs to a sample that is enriched for actives.
# output must be one of active, inactive

Worked examples follow.
[[record]]
compound = "CCC(=O)Nc1nnc(S(=O)(=O)N(C)Cc2ccccc2)s1"
qualitative_label = "inactive"

[[record]]
compound = "COc1ccc(NC(=O)CCn2c(=O)c3cccn3c3cccnc32)c(OC)c1"
qualitative_label = "inactive"

[[record]]
compound = "CCOc1cccc(C(=O)Nc2nnc(S(=O)(=O)N(C)c3ccc(C)cc3)s2)c1"
qualitative_label = "inactive"

[[record]]
compound = "COc1ccc(NC(=O)Cn2cnc3c(oc4ccccc43)c2=O)cc1OC"
qualitative_label = "inactive"

[[record]]
compound = "COc1ccc(N2CCN(c3ncnc4c3nc3n4CCCCC3)CC2)cc1"
qualitative_label = "inactive"


Request: Identify the outcome logged in this assay for the compound shown: "O=C(C1CCN(c2ncnc3c2nc2n3CCCCC2)CC1)N1CCN(c2cccc(Cl)c2)CC1"
Response: inactive

Request: Here is the next compound: "Cc1cc2c(cc1S(=O)(=O)NCc1ccccc1)OCC(=O)N2"
Response: inactive

Request: Here is the next compound: O=C(Nc1cccc(Cl)c1)C1CCCN(c2ncnc3c2nc2n3CCCCC2)C1 (stereo unspecified)
Response: active

Request: Here is the next compound: "COc1ccc(NC(=O)c2sc3nc4c(cc3c2N)CN(Cc2ccccc2)CC4)c(OC)c1"
Response: active

Request: Here is the next compound: "Cc1ccc(C(=O)Nc2nnc(S(=O)(=O)N(C)Cc3ccc(Cl)cc3)s2)cc1"
Response: inactive

Request: Here is the next compound: "CCN(CC)c1ccc(NC(=O)c2sc3nc4c(cc3c2N)CN(C)CC4)cc1"
Response: inactive

Request: Here is the next compound: "CCCCn1c(=NC(=O)c2c(-c3c(F)cccc3Cl)noc2C)c(C(=O)OCC)cc2c(=O)n3ccccc3nc21"
Response: inactive

Request: Here is the next compound: "CN(Cc1ccc(F)cc1)S(=O)(=O)c1nnc(NC(=O)c2ccccc2Cl)s1"
Response: inactive

Request: Here is the next compound: CCN(C(=O)C1CCCN(c2ncnc3c2nc2n3CCCCC2)C1)c1cccc(Cl)c1 (stereo unspecified)
Response: inactive

---

- System: DeltatarO mutant
- test-details: S. aureus survival, RN4220 and DeltatarO strains – OD600, teichoic acid synthesis inhibitors, primary screen (AID 463173)
- reported-conditions: S. aureus RN4220 wild type/DeltatarO growth, OD600, 18 h, screened at 18.75 µg/mL (by protocol)
Screen size: about 52,000 compounds; about 4,300 (8.3%) were called active. Cut-off read from the data, not from the text of the source: active = survival mostly below about 52% (no sharp cut-off); inactive = mostly above about 56%. The sample as a whole holds a higher share of actives than the screen did.
# output must be one of true = active, false = inactive

Request: Identify the outcome logged in this assay for the compound shown: "CC(=O)Nc1ccc(NCc2cccs2)cc1"
Response: false

Request: Here is the next compound: "Cc1ccc(NC(=O)c2cc(S(=O)(=O)NCCC3=CCCCC3)ccc2F)cc1C"
Response: true

Request: Here is the next compound: "COCCn1c(SCC(=O)c2ccccc2)nc2cc(C(=O)NC3CCCC3)ccc2c1=O"
Response: false

Request: Here is the next compound: CCCCN1C(=O)C(O)(c2c(C)[nH]c3ccccc23)c2ccccc21 (stereo not drawn)
Response: false

Request: Here is the next compound: "Cc1ccc(C)n1-c1nnc(N2CCC(C(=O)Nc3ccccc3Br)CC2)s1"
Response: false

Request: Here is the next compound: CCC(C)NC(=O)C1CCN(S(=O)(=O)c2ccc3c(c2)CCCN3C(C)=O)CC1 (stereo not drawn)
Response: false

Request: Here is the next compound: "Cc1ccc(CSc2ccc(-c3cccs3)nn2)cc1"
Response: false
